# Assay Target: T1, FCHO1 μHD P627D + A629E (for ITC) (human, UniProt O14526 609-889, P627D | A629E)
# T1 sequence (looked up): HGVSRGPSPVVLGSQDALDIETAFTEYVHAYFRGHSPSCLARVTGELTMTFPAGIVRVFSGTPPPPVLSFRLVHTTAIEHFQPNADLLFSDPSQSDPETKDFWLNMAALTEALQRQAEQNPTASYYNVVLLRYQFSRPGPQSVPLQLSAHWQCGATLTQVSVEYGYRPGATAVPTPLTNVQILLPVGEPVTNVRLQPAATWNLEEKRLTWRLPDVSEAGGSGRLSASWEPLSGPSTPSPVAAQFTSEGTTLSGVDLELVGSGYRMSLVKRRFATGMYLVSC
# Assay Text: ITC; repeated injection of EPS15 peptides into a temperature-controlled solution of μHD, Nano ITC instrument (TA Instruments); minimum of four runs
# Experimental Parameters: both partners purified

[
  {
    "Binder": "NLDFFQSDPFVGSDPFKDDPFGK (peptide, UniProt P42566 616-638, looked up) [EPS15 616–638 peptide]",
    "Kd": "> 300 µM"
  }
]
